- Tested on: HUNK
- experimental parameters: concentration: 1 μM, replicates: in singlicate; n = 1;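 also: KINOMEscan kinase panel screen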
result type: %Inh (%)

[[record]]
compound = "CNc1ncnc2[nH]ncc12 [SKF-18355]"
test_target = "HUNK"
unit_abbrev = "%"
recorded_result = 34

[[record]]
compound = "Cc1nnc(-c2ccc3occ(-c4ccc(C(C)O)cc4)c3c2)o1 (centres unmarked)"
test_target = "HUNK"
unit_abbrev = "%"
recorded_result = 0

[[record]]
compound = "Fc1ccc(-c2ncn(CCCN3CCOCC3)c2-c2cccnc2)cc1 [SB-211743]"
test_target = "HUNK"
unit_abbrev = "%"
recorded_result = 44

[[record]]
compound = "CC(C)Oc1ccc2c(-c3ccnc(Nc4ccc(N5CCN(C)CC5)cc4)n3)cnn2n1 [GW696155]"
test_target = "HUNK"
unit_abbrev = "%"
recorded_result = 0

[[record]]
compound = "O=C(NCCCN1CCOCC1)c1cccc(Nc2nccc(Nc3ccc(Oc4ccccc4)cc3)n2)c1 [GW663929]"
test_target = "HUNK"
unit_abbrev = "%"
recorded_result = 0


---

- Tested on: AURKB
- experimental parameters: concentration: 1 μM, replicates: in singlicate; n = 1
# %Inh annotations
result type: %Inh

[[record]]
molecule = "Cl.Oc1cccc(Nc2ccnc3cc(-c4ccncc4)ccc23)c1"
result_type = "%Inh"
recorded_result = "43%"

[[record]]
molecule = "O=C(c1ccc(-c2cc(-c3c[nH]nc3-c3ccccn3)ccn2)cc1)N1CCOCC1"
result_type = "%Inh"
recorded_result = "33%"

[[record]]
molecule = "Cc1cccc(Cn2ccn3c(=O)cc(N4CCOCC4)nc23)c1"
result_type = "%Inh"
recorded_result = "0%"

[[record]]
molecule = "COc1cc2c(cc1OC[C@@H](O)CO)ncc1c3ccc(C#N)cc3[nH]c21"
result_type = "%Inh"
recorded_result = "52%"

[[record]]
molecule = "CN(C(=O)c1ccc(-c2cc(-c3c[nH]nc3-c3ccccn3)ccn2)cc1)C1CCOCC1"
result_type = "%Inh"
recorded_result = "0%"

[[record]]
molecule = "CN1c2ccc(NCc3ccc(F)cc3)cc2-c2c(cnn2C)S1(=O)=O"
result_type = "%Inh"
recorded_result = "14%"

[[record]]
molecule = "COCCNC(=O)c1ccc(-c2cc(C(=O)NC3CC3)cc(F)c2C)cc1"
result_type = "%Inh"
recorded_result = "33%"

[[record]]
molecule = "COc1ccc(COc2cc(-n3cnc4ccccc43)sc2C(N)=O)cc1"
result_type = "%Inh"
recorded_result = "0%"

[[record]]
molecule = "Cc1ccc(C(=O)NCC(N)=O)cc1-n1c(C)cc(OCc2ccc(F)cc2F)c(Br)c1=O"
result_type = "%Inh"
recorded_result = "0%"

[[record]]
molecule = "[2H]C([2H])(c1cccc(C(F)(F)F)c1C)n1ccn2c(=O)nc(N3CCOCC3)cc12"
result_type = "%Inh"
recorded_result = "11%"

[[record]]
molecule = "Cc1nnc(-c2ccc3ncc(-c4ccc(S(C)=O)cc4)n3c2)o1 (stereo not shown)"
result_type = "%Inh"
recorded_result = "21%"

[[record]]
molecule = "Fc1ccc(-c2nn3c(OCC(F)(F)F)cccc3c2-c2ccncc2)cc1"
result_type = "%Inh"
recorded_result = "0%"

[[record]]
molecule = "Nc1nc(-c2ccc3c(N)n[nH]c3c2)cc(N2CCCC2)n1"
result_type = "%Inh"
recorded_result = "0%"

[[record]]
molecule = "N#Cc1c(N2CCOCC2)sc(-c2ccn[nH]2)c1-c1ccc(Cl)cc1"
result_type = "%Inh"
recorded_result = "4%"

[[record]]
molecule = "CSc1ccc(-c2cc3ncnc(SCC(=O)O)c3s2)cc1"
result_type = "%Inh"
recorded_result = "78%"

[[record]]
molecule = "CN(C1=C(c2ccccc2)C(=O)NC1=O)c1ccccc1"
result_type = "%Inh"
recorded_result = "10%"

[[record]]
molecule = "NS(=O)(=O)c1cccc(-c2ccc3ncc(N4CCOCC4)nc3c2)c1"
result_type = "%Inh"
recorded_result = "0%"

[[record]]
molecule = "CC(C)Oc1ccc2c(-c3ccnc(Nc4ccc(N5CCN(C)CC5)cc4)n3)cnn2n1"
result_type = "%Inh"
recorded_result = "70%"

[[record]]
molecule = "c1ccc(-c2cc(-c3c[nH]nc3-c3ccccn3)ccn2)cc1"
result_type = "%Inh"
recorded_result = "0%"

